assay: Log P, n-octanol/water partition coefficient; format: physicochemical
ENDPOINT_LABEL: logP

Study these solved cases before continuing.
- STRUCTURE_NOTATION: "Nc1cc(C(=O)O)nc(C(=O)O)c1"
  logP: 0
- STRUCTURE_NOTATION: "O=C(O)c1cccc(C(=O)O)n1"
  logP: 0.8
- STRUCTURE_NOTATION: "O=C(O)c1ccccn1"
  logP: 0.7
- STRUCTURE_NOTATION: "O=C(O)c1cc(O)cc(C(=O)O)n1"
  logP: 0.6

Next molecule, logP to be filled in.
INPUT: For the molecule O=C(O)c1cccnc1C(=O)O , what logP is on record?
OUTPUT: 0.4

###

experiment: Log P, n-octanol/water partition coefficient; type: physicochemical
ENDPOINT_LABEL: logP
Respond using a number only.

Check out these entries, answers already filled in.
- STRUCTURE_NOTATION: "CCCCc1ccc(C(=O)O)nc1"
  RESULT: 2.6
- STRUCTURE_NOTATION: "O=C(O)c1ccc2ccccc2n1"
  RESULT: 2.1

Could you now consider this next compound?
INPUT: # query: logP of entry Cc1cccc(C(=O)O)n1
OUTPUT: 1
